Sourced from patent US20240270828A1

System: T1, SARS-CoV-2 S2 (40590-V08B, Sino Biological) (SARS-CoV-2, UniProt P0DTC2 686-1213)
T1 construct: domain: S2
Assay Info: ELISA on coated protein, anti-human IgG-HRP; AUC of the OD

Binder	Binding AUC
1242C6 (antibody, V domains shown, Recombinant human IgG1) VH: EVQLVQSGAEVKKPGASVKVSCKASGFTFSDYYMHWVRQAPRQGLEWMGLINPSGSGTAYAQNFQGRVTLTRDTSTSTLYMEMGSLTSDDTAVYYCARMDSSGSYDHWGQGTLVTVSS VL: DIVMTQSPGTLSLSPGDRATLSCRASQTIRISYLAWYQQKPGQAPRLLVYGPSIRATGIPDRFSASGSGTDFTLTISRLEPEDFAVYYCQHYGSSPPRYTFGQGTKLEIK	26.7
1242D11 (antibody, V domains shown) VH: QVQLVQSGGGLVQPGGSLRLSCAVSGFTFSSYWMSWVRQAPGKGLEWVANIKQDGSEKYYVDSVKGRFTISRDNAKNSLFLQMNSLRAEDTAVYYCAREAVGYYYDSRGYHYSWYFDLWGRGTLVTVSS VL: EIVLTQSPGTLSLSPGERATLSCRASQSVSSSYLVWYQQKPGQAPRLLIFGASSRATGIPDRFSGSGSGTDFTLTISSLEPEDFAVYYCQHYGSSPPMYTFGQGTKLEIK	24.4
